TEST PROTOCOL: cytotoxicity in HPDE-C7 cells, cell-based, fluorescence, HTS (AID 430);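 also: cells exposed to compound for 48 hours before viability readout; 0% = vehicle and 100% = reference cytotoxic drug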
CONDITION NOTES: HPDE-C7 pancreatic duct cells viability, at 10 µM, active compounds read high
The whole screen tested about 63,000 compounds, of which about 1,100 (1.7%) were called active. Only a selection was taken, and actives are over-represented in it overall. Entries with a potency or affinity are not part of this list.
Item-by-item account of cytotoxicity

| SMILES REPR | cytotoxicity, % |
| --- | --- |
| O=C(CSc1nc2ccccc2s1)NC(=O)NCc1ccco1 | 82.9 |
| CCn1c(SCC(=O)Nc2ccc3c(c2)c2ccccc2n3CC)nnc1-c1ccco1 | 49 |
| CCn1c2ccccc2c2cc(NC(=O)CSc3nnc(-c4ccccc4OC)n3N)ccc21 | 57.2 |
| COC(=O)c1ccccc1NC(=O)c1nc2nc(C)cc(C)n2n1 | 8.9 |
| CCc1cc2c(N3CCN(c4nnc(CC)s4)CC3)ncnc2s1 | 15.2 |

###

TEST PROTOCOL: cytotoxicity in HPDE-C7 cells, cell-based, fluorescence, HTS (AID 430);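 also: cells exposed to compound for 48 hours before viability readout; 0% = vehicle and 100% = reference cytotoxic drug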
CONDITION NOTES: HPDE-C7 pancreatic duct cells viability, at 10 µM, active compounds read high
Hit rate of the full screen: of about 63,000 compounds, about 1,100 (1.7%) were called active. This excerpt belongs to a sample that is enriched for actives. Potency and affinity values are given separately.

| COMPOUND | cytotoxicity (%) |
| --- | --- |
| Cc1nc2sc3c(c2c(=O)o1)CCCC3 | 0 |
| CCOc1ccc(NC(=O)CN2C(=O)COc3ccc(Cl)cc32)cc1 | -2 |
| Cc1nn(C(C)(C)C)c(OC(=O)c2cccs2)c1S(=O)(=O)c1ccccc1 | 54.2 |
| CCCC(=O)Nc1ccc(Cl)c(NC(=O)c2ccco2)c1 | -1.6 |
| COc1ccc(C(=O)NCC(C)CN(C)C)cc1 (stereo not drawn) | -2.3 |
| O=c1oc(-c2cccs2)nc2sc3c(c12)CCC3 | 28.2 |
| COc1ccc(/C(O)=C2/C(=O)C(=O)N(Cc3cccnc3)C2c2ccccn2)cc1 (stereo not drawn) | -4.2 |
| Cc1cc(NC(=O)c2cc(-c3cccnc3)nc3c(C)c(C)ccc23)no1 | 22.3 |
| COC(=O)C1(C)Nc2ccccc2C(=O)N1c1ccccc1C (stereo not drawn) | 2.8 |
| Cc1c(NC(=O)C(C)OC(=O)CC2Sc3ccccc3NC2=O)c(=O)n(-c2ccccc2)n1C (stereo not drawn) | -14.3 |
| Cc1nn(C(C)(C)C)c(OC(=O)c2ccc3c(c2)OCO3)c1S(=O)(=O)c1ccccc1 | 60.9 |
| Nn1c(-c2cccs2)nc2sc3c(c2c1=O)CCCC3 | -1.4 |
| Cc1ccc2c(c1)-c1ccccc1S(=O)(=O)N2 | 10.1 |
| COc1ccc(N2CCN(C(c3ccccc3OC)c3nnnn3Cc3ccco3)CC2)cc1 (stereo not drawn) | -1.6 |
| Nc1ccc2c(c1)-c1ccccc1S(=O)(=O)N2 | 14.6 |
| Cc1cc(C)c2nc(-c3ccccn3)cc(C(=O)Nc3cc(C)on3)c2c1 | 6.6 |
| CCC(c1nnnn1C(C)(C)C)N(CCOC)Cc1cc2cccc(C)c2n2nnnc12 (stereo not drawn) | 5.7 |
| O=C(Nc1ccccc1)N(CCN1CCOCC1)Cc1ccccc1F | -7.5 |
| c1ccc(-c2ccc(OCCOCCn3cncn3)cc2)cc1 | -14.6 |
| COc1ccc(NC2=NC3(CCCCC3)N=C(N)N2)cc1 | 4.1 |
| COCCn1nnnc1C(c1ccc(OC)cc1OC)N1CCN(c2ccccc2)CC1 (stereo not drawn) | -2 |
| COc1cc(C2C3=C(CC(c4ccco4)CC3=O)Nc3ccccc3N2C(C)=O)cc(OC)c1OC (stereo not drawn) | -7.9 |
| COc1ccc2c(c1)[nH]c1c(=O)n(CCN3CCCC3)cnc12 | -19.4 |
| CCOC(=O)N1CCN(S(=O)(=O)c2ccc(F)cc2)CC1 | -1.6 |
| C=CCn1cnc2c(c1=O)c1nc3ccccc3nc1n2/N=C/c1cccc(OC)c1OC | 46.6 |
| O=C(c1ccc2c(=O)n(-c3ccccc3)c(=O)[nH]c2c1)N1CCCCC1 | -2.4 |
| COc1ccc(-c2ccc(NCCC3=CCCCC3)nn2)cc1OC | 18.1 |
| Cc1ccccc1OCC(=O)Nc1ccc(N2CCN(S(C)(=O)=O)CC2)cc1 | -2 |
| CC(=O)Nc1nonc1NC(C)=O | -3.4 |
| COc1cccc(NC2=NC3(CCCCC3)N=C(N)N2)c1 | 3.1 |
| O=c1oc(-c2cc3ccccc3o2)nc2sc3c(c12)CCCC3 | 51.3 |
| COc1ccc(CCN2C(=O)c3[nH]nc(-c4ccccc4O)c3C2c2ccccc2)cc1OC (stereo not drawn) | 54.9 |
| Cc1nc(NC(=O)c2ccccc2)sc1-c1csc(NCc2ccco2)n1 | 63.4 |
| Cc1nc(NC(=O)c2ccccc2)sc1-c1csc(N)n1 | 39.2 |
| Cc1nc(C)c(-c2csc(NCc3ccco3)n2)s1 | -21.6 |
| O=C(Oc1c(Cl)cc(Cl)c2cccnc12)N1CCCCC1 | -1.1 |
| CSc1nsc(SCc2ccc(F)cc2)n1 | -4.1 |
| CCC1(CC)Nc2ccccc2C(=O)N1c1ccc(NC(C)=O)cc1 | 10.6 |

Where do these numbers come from? They come from PubChem BioAssay AID430.
